# ASSAY SYSTEM: T1, biotinylated CD3 epsilon:delta heterodimer protein (Amsbio AMS.CDD-H52WO) (Homo sapiens (Human), UniProt P07766 23-126; P04234 22-105)
# T1 construct: also called CD3 heterodimer
# MEASUREMENT NOTES: BLI (Octet), CD3 on SA sensor, Fab analyte;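 further: fabs dipped at several concentrations (0–300 nM) onto CD3-loaded streptavidin biosensors, 100 s association then 300 s dissociation in buffer, pH 7.4, sensors blocked with biocytin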
// koff lookup, one value per entry
Lab book: enter the figure in s⁻¹, no units written.

// known answers, use as guide
binder="huSP34.3.10 Fab-HF (Fab, V domains shown, also called HC3+LC10) VH: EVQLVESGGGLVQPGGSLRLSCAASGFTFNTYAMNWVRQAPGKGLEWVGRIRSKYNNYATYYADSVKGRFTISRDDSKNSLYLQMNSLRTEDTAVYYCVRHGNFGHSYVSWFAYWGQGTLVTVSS VL: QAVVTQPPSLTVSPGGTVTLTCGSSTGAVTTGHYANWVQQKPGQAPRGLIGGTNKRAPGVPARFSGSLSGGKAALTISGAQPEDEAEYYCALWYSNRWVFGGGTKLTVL" parameter_measured=koff measurement=0.00137
binder="mSP34 Fab-HF v2 (Fab, V domains shown) VH: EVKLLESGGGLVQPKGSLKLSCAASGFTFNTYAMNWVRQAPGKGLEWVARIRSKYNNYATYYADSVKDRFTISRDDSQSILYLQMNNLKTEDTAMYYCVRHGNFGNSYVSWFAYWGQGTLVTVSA VL: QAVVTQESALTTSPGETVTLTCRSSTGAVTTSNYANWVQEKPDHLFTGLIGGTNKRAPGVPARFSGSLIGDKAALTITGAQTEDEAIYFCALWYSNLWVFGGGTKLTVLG" parameter_measured=koff measurement=0.00266

# next binder below
So what does the record say about koff for huSP34.13.10 Fab-HF (Fab, V domains shown, also called HC13+LC10) VH: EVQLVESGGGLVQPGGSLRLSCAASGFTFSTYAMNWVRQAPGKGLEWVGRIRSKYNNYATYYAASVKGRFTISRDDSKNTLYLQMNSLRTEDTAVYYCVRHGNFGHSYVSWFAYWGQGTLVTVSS VL: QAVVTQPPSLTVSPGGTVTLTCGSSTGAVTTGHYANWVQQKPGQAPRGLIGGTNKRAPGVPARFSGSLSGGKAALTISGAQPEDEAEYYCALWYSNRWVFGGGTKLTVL ?
0.00204
